Biological target: TDP-43 (Homo sapiens, UniProt Q13148 1-414)
Sequence (Q13148 whole entry): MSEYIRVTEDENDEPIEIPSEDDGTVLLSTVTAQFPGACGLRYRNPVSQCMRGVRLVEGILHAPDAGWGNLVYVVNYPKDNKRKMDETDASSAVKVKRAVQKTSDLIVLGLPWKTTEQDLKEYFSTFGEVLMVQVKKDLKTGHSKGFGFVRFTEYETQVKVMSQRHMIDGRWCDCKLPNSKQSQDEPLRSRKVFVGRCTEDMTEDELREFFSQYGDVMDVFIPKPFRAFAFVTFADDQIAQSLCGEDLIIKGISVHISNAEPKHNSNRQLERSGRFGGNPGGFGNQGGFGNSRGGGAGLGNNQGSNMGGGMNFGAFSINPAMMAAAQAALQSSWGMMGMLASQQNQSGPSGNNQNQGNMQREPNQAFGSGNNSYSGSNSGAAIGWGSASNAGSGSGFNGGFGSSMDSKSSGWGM
Assay: RNA Bind-n-Seq with designed 260-mer pool; 25 mM Tris-HCl, 150 mM KCl, 3 mM MgCl2, BSA (printed 500 mg/mL), 20 units/mL SUPERase IN; pH not stated; 500 nM RNA pool, 1 h, 4 C; TDP-43 5, 50, 500 nM; high values mean tight binding
Conditions: protein: recombinant; tags: SBP (GST cleaved off with PreScission; pGEX-GST-SBP)
In all, about 9,900 sequences were measured (“r (bound/input frequency ratio)”: median about 0.7, highest 2% from about 6.5 on). What follows is part of a selection rich in the highest values, with near analogues and random picks from the rest.
measured metric: binding signal

# example entries with known answers
binder	measured metric	observed result
ENSMUSG00000004113.89|Cacna1b|48:52;211:215;227:232 (ssRNA) RNA: GGGAGUUCUACAGUCCGACGAUCGCUUCGAUAUCCGCAUGCUAGACUAAUAAAGCCCUUUCUUAGAGGGACAUGGUUCUCUCUAUCCUCCACACAACUGCCUUCCUGGGUUCCAUGCCAGAUGUUGGAUCCUAAGCAGGAGGUAGCUGAGUUGAGAUGGACCCAGCAAAUCCAAAUCCUAUGUCAUGGCCUCCAGCAUCCAGGGUGGGUCCUUGGGACUUUUCUUAGGAGGGACUUUCUGAGCCUCGUGGAGACACACGUUUGUCCAAAACACACGCAUGGGAGAUAGGGUACCCCUGAAAGCCUCUUGCGGUCGCACUAGUGUGGAAUUCUCGGGUGUCAAGG	binding signal	0.504 R (bound/input frequency ratio)
ENSMUSG00000042529.275|Kcnj12 (ssRNA) RNA: GGGAGUUCUACAGUCCGACGAUCGCUUCGAUAUCCGCAUGCUAUUACCUGCCACUCACCUCUCUAUCUAGUUGUCGAGUCUAGGGAAGGGCAGAGGGUGGGUCCUGGCCACUGGGUGCCACUGUGGGAGCCGGGGCACCUGUCAUUCUUUCUGAGUAGGUGGGCCUGUAUCCAGAGCAGGGUCUAGGGGCUCCUGCUCCCGGCUCAUCUCAGUGGCCUGAAGCAUUCAAAACUCUAGCCAGCCCCAUCCUCCUCCCUGCCAGAAUGGUCCAGUCCCUGGGCCCUGCUGGAGAGCAGCUCAAACCUCUUGCGGUCGCACUAGUGUGGAAUUCUCGGGUGUCAAGG	binding signal	0.367 R (bound/input frequency ratio)
ENSMUSG00000004113.257|Cacna1b|213:217 (ssRNA) RNA: GGGAGUUCUACAGUCCGACGAUCGCUUCGAUAUCCGCAUGCUAGAUGCUGAAGAGUGCAAAACGCUAGCAAAGAAGAGGCUGGGGUUAGAGGAAGAAGCCCGCACUGGCCGUGUUACAAGAAACUGGCAGGAAGGAAAUGGCCCUGGAACAGGCCAGGUGCCUAGAGCUAAGUCAGGCCCCUGGCUUAGCACUAGAAAAAAUAAAACCUCAUGGCUGCUUUGCAAAGGGAAAACCCAUGCUCAGGAAGGUGUUCACACACCACAGAUAGCUGGGAGGCCACGAGAGAAAGGUUGCACACAGACCUCUUGCGGUCGCACUAGUGUGGAAUUCUCGGGUGUCAAGG	binding signal	0.718 R (bound/input frequency ratio)

Please find the next binder below.
Input ENSMUSG00000031028.295|Tub (ssRNA) RNA: GGGAGUUCUACAGUCCGACGAUCGCUUCGAUAUCCGCAUGCUAUCCCAGGUUGGACACUCGACGAAAGGCACACCUGCUGCAGCAGGUUCUGACACACCUGAGCCAUACAUUGCCAUCAGAGAACCCUCAGCGAGGUAGCCUUUGUUUACAGUCUAGUUUCUAGAGGGCAGUAGGACUUCCAUGCUGGGGCUGGCCUAUCUCCUGAUGAAAGAUUACAGUGCCAUCUCCUUCCCAUAGUUCUGUGUCUGCCCUCCCUCCCUGACUUUAUAGGGAGAAAUCUCCUGACAUUAGAGGUGAUAGAACUCUUGCGGUCGCACUAGUGUGGAAUUCUCGGGUGUCAAGG , output reported binding signal.
0.563 R (bound/input frequency ratio)
